As shown below, each of these compounds has a reported pKd value.
Assayed System: VpMCM (V. parvula MCM) (Veillonella parvula, UniProt A0A124EFR6)
Sequence (A0A124EFR6 entry or part of it): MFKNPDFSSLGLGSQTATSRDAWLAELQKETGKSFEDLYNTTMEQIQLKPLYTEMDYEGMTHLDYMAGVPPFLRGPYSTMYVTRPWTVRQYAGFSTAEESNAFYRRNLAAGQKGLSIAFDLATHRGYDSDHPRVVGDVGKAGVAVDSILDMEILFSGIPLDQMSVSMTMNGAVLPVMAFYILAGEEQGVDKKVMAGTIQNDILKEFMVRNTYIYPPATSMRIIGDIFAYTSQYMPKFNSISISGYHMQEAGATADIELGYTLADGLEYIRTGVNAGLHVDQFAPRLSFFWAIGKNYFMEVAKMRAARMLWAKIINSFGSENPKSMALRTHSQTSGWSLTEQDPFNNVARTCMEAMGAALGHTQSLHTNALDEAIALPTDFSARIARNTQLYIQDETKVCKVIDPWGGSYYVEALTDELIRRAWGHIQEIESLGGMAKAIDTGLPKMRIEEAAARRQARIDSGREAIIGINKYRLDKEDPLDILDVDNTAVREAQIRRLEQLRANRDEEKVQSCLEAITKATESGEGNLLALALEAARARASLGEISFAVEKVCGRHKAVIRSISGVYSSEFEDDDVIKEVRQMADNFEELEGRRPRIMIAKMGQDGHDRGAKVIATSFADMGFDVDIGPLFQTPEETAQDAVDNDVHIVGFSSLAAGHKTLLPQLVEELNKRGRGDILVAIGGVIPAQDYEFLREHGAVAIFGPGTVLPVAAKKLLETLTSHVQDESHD
Experiment Summary: Fluorescence binding assay, VpMCM
Test Settings: fitted curve, error = standard error of the curve fit; equimolar α and β subunits
pKd: −log10 of the molar value.
Parameter: pKd

C/C1=C2/[N-][C@H]([C@H](CC(N)=O)[C@@]2(C)CCC(=O)NC[C@@H](C)OP(=O)([O-])O[C@H]2[C@@H](O)[C@@H](Oc3ccc(C)cc3)O[C@@H]2CO)[C@]2(C)N=C(/C(C)=C3N=C(/C=C4N=C1[C@@H](CCC(N)=O)C\4(C)C)[C@@H](CCC(N)=O)[C@]\3(C)CC(N)=O)[C@@H](CCC(N)=O)[C@]2(C)CC(N)=O.[CH2-][C@H]1O[C@@H](n2cnc3c(N)ncnc32)[C@H](O)[C@@H]1O.[Co+3] [Ado[Cre]Cba, para-Cresolylcobamide] :: 5.89
C/C1=C2/[N-][C@H]([C@H](CC(N)=O)[C@@]2(C)CCC(=O)NC[C@@H](C)OP(=O)([O-])O[C@H]2[C@@H](O)[C@@H](n3cnc4ncnc(N)c43)O[C@@H]2CO)[C@]2(C)N=C(/C(C)=C3N=C(/C=C4N=C1[C@@H](CCC(N)=O)C\4(C)C)[C@@H](CCC(N)=O)[C@]\3(C)CC(N)=O)[C@@H](CCC(N)=O)[C@]2(C)CC(N)=O.[CH2-][C@H]1O[C@@H](n2cnc3c(N)ncnc32)[C@H](O)[C@@H]1O.[Co+3] [Ado[Ade]Cba, Adeninylcobamide] :: 5.05
C/C1=C2/[N-][C@H]([C@H](CC(N)=O)[C@@]2(C)CCC(=O)NC[C@@H](C)OP(=O)([O-])O[C@H]2[C@@H](O)[C@@H](n3cnc4ccccc43)O[C@@H]2CO)[C@]2(C)N=C(/C(C)=C3N=C(/C=C4N=C1[C@@H](CCC(N)=O)C\4(C)C)[C@@H](CCC(N)=O)[C@]\3(C)CC(N)=O)[C@@H](CCC(N)=O)[C@]2(C)CC(N)=O.[CH2-][C@H]1O[C@@H](n2cnc3c(N)ncnc32)[C@H](O)[C@@H]1O.[Co+3] [Ado[Bza]Cba, Benzimidazolylcobamide] :: 5.85
